Collected V183D/yield of O-glycoside(%) values appear next to each entry.
Target: AbCGT V183D (Aloe vera, UniProt A0A7G9P699, V183D)
Sequence (A0A7G9P699 1-470 V183D): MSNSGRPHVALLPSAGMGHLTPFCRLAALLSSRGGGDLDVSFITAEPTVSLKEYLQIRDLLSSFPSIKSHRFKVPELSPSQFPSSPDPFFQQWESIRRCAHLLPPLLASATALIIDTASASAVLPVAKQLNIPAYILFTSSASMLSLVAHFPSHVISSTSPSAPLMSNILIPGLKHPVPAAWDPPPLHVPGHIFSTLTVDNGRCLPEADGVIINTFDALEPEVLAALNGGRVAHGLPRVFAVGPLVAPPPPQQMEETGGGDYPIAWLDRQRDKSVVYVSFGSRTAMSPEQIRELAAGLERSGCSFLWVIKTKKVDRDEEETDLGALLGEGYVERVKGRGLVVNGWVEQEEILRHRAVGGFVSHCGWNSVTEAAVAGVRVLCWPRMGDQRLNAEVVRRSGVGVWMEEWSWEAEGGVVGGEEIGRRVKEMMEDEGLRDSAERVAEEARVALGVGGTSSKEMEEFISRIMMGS
Experiment: Glycosyltransferase activity of AbCGT variant V183D
Assay type: biochemical, Aloe barbadensis
Conditions: reaction-1
MEASURED_PARAMETER: V183D/yield of O-glycoside(%)

MOLECULE	READOUT_VALUE
Oc1cc(O)cc(OCCCCCCc2ccccc2)c1	0
COc1cc(O)c(C(C)=O)c(OC)c1	0
CC(=O)c1c(O)cc(C)cc1O	0.8
CC(=O)c1cccc(O)c1	0
COc1cc(O)c(C(C)=O)c(O)c1	0
CC(=O)c1ccccc1O	0
O=C1CC(O)(c2ccc(O)cc2)Oc2cc(O)cc(O)c21 (stereo not shown) [Compound 23, 2-hydroxynaringenin]	0.7

Data origin, for the record: paper PMC7558026
